Readout Name: melting point (°C)
Write the answer as a number in °C, unit excluded.

CCOC(=O)c1c(N2CCN(C(=O)c3cccs3)CC2)c2cccnc2n(Cc2ccc(F)cc2)c1=O: 196

State, in one line, measured melting point of COc1ccccc1[C@@]1(O)C[C@@H](C)C[C@@H]2CN(Cc3ccccc3)C[C@@H]21 (racemic) 120

----------
The entries below come with measured melting point values attached.

Worked cases, answers included:
Fc1cc(F)c(N=C2NCCN2)c(F)c1: 148 to 150 °C
COc1ccc(C2(C#Cc3cccc(NC(=O)C(F)(F)F)c3)CCCC(=O)C2)cc1OC1CCCC1 (stereo not given): 63 to 65 °C
O=C(CNC(=O)c1ccc(C2=NOC(c3cc(Cl)cc(C(F)(F)F)c3)(C(F)(F)F)C2)c2ccccc12)NCC(F)(F)F (stereo not given): 107 to 108 °C
CNC(=O)c1ccc(-c2ccc(NC(=O)NCc3cccnc3)cc2)nc1NCc1ccncc1: 218 to 219 °C
COc1cc(C(=O)NS(=O)(=O)c2ccccc2C)ccc1Cc1c(Cl)n(C)c2cc(Cl)c(CC(C)NC(=O)N(C)C)cc12 (stereo not given): 136 to 146 °C
COc1nsc(N2CCN(c3ccccn3)CC2)n1: 144 to 145 °C
Cc1nn(C)c2c(O)nc(C3CC3)nc12: 238 to 240 °C
CCn1nc(C)cc1C(=O)OC: 130 to 133 °C
CS(=O)(=O)Oc1cccnc1: 56 to 58 °C
COC(=O)CCn1c(=O)n(CCN2CCN(c3cccc(C(F)(F)F)c3)CC2)c(=O)c2cscc21: 87 to 88 °C

State, in one line, measured melting point of Cc1cc(-c2cnn(-c3ccccc3)c2)ccc1OC=C1C=CC=CC1n1nnn(C)c1=O (stereo not given) 152 to 153 °C

State, in one line, measured melting point of `Fc1ccc(Nc2nnc(Cc3ccncc3)c3ccccc23)cc1Cl` 185 to 187 °C

State, in one line, measured melting point of `OCc1ccc(-c2nn(Cc3ccccc3)c3ncncc23)o1` 165 °C

State, in one line, measured melting point of `COc1cc2c(c3c1OC(C)(C)C3)C(c1ccc(NC(=O)c3cccnc3)cc1)=NC(C)(C)C2` 130 to 137 °C

State, in one line, measured melting point of `O=C1NCc2c1cccc2[N+](=O)[O-]` 235 to 237 °C

State, in one line, measured melting point of Cc1c(NC(=O)c2cc3c(s2)CCCC3)cccc1-c1cn(C)c(=O)c(Nc2ccc(C3C(=O)N(C)CCN3C)cc2)n1 (stereo not given) 155 to 156 °C

State, in one line, measured melting point of `COc1cc(OC)c(C=O)cn1` 97 to 98 °C

State, in one line, measured melting point of `O[C@@H]1C(Cl)=CCC[C@@H]1O` 111 to 112 °C

State, in one line, measured melting point of `CC1(C)C(=O)N([Si](C)(C)C)C(=O)N1[Si](C)(C)C` 46 to 49 °C

----------
Readout Name: melting point

State, in one line, measured melting point of `CCc1nc(C)n2nc(C(=O)O)nc2c1Cc1ccc(-c2ccccc2-c2nnn[nH]2)cc1` 194 to 198 °C

State, in one line, measured melting point of `OC(=S)CCC1CCN(Cc2ccc3c(c2)Nc2nccnc2S3)CC1` 110 to 113 °C

State, in one line, measured melting point of COc1ccc2c(c1)[C@@H](O)[C@H](CN1CCC3(CC1)C(=O)NCN3c1ccccc1)CC2 (relative stereo) 216 to 218 °C

State, in one line, measured melting point of O=C(NC(CCl)c1ccc(-c2ccc(SC(F)F)cc2)cc1)c1c(F)cccc1F (centres undefined) 146 to 147 °C

State, in one line, measured melting point of `COc1c(/C=C/c2ccc(C(=O)O)cc2)c(C)cc2c1C(C)(C)CCC2(C)C` 222 to 223 °C
